Target: Neutrophil collagenase (Homo sapiens)
Assay: Inhibition of human MMP-8
quantity-measured: IC50 (nM)

(A) COc1ccc(-c2nnn(CCCOc3ccc(S(=O)(=O)C4(C(=O)NO)CCOCC4)cc3)n2)cc1
(B) COc1ccc(C(=O)N2CCN(c3ccc(S(=O)(=O)C4(C(=O)NO)CCOCC4)cc3)CC2)cc1
[ask] Which numeric IC50 is bigger, that of A or that of B ? Label of pick, please.
[reply] B
(B: 1200 nM, A: 190 nM)

###

Biological target: Neutrophil collagenase (Homo sapiens, UniProt P22894)
Sequence (P22894 whole entry): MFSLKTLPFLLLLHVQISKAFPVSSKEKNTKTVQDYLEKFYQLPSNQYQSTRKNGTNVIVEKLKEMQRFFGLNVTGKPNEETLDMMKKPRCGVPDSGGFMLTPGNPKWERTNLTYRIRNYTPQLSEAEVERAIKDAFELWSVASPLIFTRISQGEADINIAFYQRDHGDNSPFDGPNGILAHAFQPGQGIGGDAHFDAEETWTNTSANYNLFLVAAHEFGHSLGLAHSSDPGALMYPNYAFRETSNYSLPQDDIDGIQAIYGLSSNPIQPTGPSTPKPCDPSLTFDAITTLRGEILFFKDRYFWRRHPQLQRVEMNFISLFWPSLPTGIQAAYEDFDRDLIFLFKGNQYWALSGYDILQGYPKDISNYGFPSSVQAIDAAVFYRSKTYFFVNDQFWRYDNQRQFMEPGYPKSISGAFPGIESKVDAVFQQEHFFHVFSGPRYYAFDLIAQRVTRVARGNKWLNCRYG
Assay: Inhibition of human MMP-8
quantity-measured: Ki (nM)

[ask] Kindly indicate its recorded Ki. Item: `O=C(NO)C1(S(=O)(=O)c2ccc(OCCCc3nc(-c4ccc(OC(F)(F)F)cc4)no3)cc2)CCOCC1`
[reply] 180

(A) O=C(NO)C1(S(=O)(=O)c2ccc(OCCCn3cncc3-c3ccc(OC(F)(F)F)cc3)cc2)CCOCC1
(B) COc1ccc(C(=O)NCCCOc2ccc(S(=O)(=O)C3(C(=O)NO)CCOCC3)cc2)cc1
(C) O=C(NO)C1(S(=O)(=O)c2ccc(OCCCn3cnc(-c4ccc(OC(F)(F)F)cc4)c3)cc2)CCOCC1
[ask] Reorder: Ki, max to min. In plain terms: list the labels in the order you were asked to.
[reply] B, A, C
(B: 900 nM, A: 140 nM, C: 74 nM)
